assay.comment: In vivo pharmacokinetic in the rat after i.v. and p.o. administration of compound (IV)
condition.info: rat, plasma, iv, 5 mg/kg, compound (IV) i.v. 5 mg/kg, rat, mean; read-out: AUClast Mean (converted)
endpoint.name: AUC(0-t)
Record the result as a number with its unit.

// query For the molecule CCCC(=O)Oc1ccc(N)cc1C(=O)O.Cl [Compound (IV), 5-amino-2-(butyryloxy)benzoic acid] , what AUC(0-t) is on record?
// result 313 ng·h/mL

* * *

assay.comment: In vivo pharmacokinetic in the rat after i.v. and p.o. administration of compound (IV)
condition.info: rat, plasma, iv, 5 mg/kg, compound (IV) i.v. 5 mg/kg, rat, mean; read-out: T½ Mean
endpoint.name: half-life (h)
The response must be a number in h with no trailing unit.

// query For the compound CCCC(=O)Oc1ccc(N)cc1C(=O)O.Cl [Compound (IV), 5-amino-2-(butyryloxy)benzoic acid] , what half-life is on record?
// result 9.1

* * *

assay.comment: In vivo pharmacokinetic in the rat after i.v. and p.o. administration of compound (IV)
condition.info: rat, plasma, iv, 5 mg/kg, compound (IV) i.v. 5 mg/kg, rat, mean; read-out: AUCinf Mean (converted)
endpoint.name: AUC(0-inf) (ng·h/mL)
The response must be a number in ng·h/mL with no trailing unit.

// query For the compound CCCC(=O)Oc1ccc(N)cc1C(=O)O.Cl , what AUC(0-inf) is on record?
// result 342

* * *

assay.comment: Permeability on the Caco2 cellular line
Assay type: in vitro ADME
condition.info: human, Caco-2; Apical (pH 6.5) → Basolateral (pH 7.4), Caco2; read-out: Papp A→B (nm/sec) Mean ± SD
Entries and their Papp A→B

{"compound": "CC[C@]1(O)C[C@@H]2CN(CCc3c([nH]c4ccccc34)[C@@](C(=O)OC)(c3cc4c(cc3OC)N(C)[C@H]3[C@@](O)(C(=O)OC)[C@H](OC(C)=O)[C@]5(CC)C=CCN6CC[C@]43[C@@H]65)C2)C1 [Vinblastine, reference compound]", "Papp A→B": "0.41 ×10⁻⁶ cm/s"}

// query For the compound CCCC(=O)Oc1ccc(N)cc1C(=O)O.Cl , what Papp A→B is on record?
// result 0.59 ×10⁻⁶ cm/s

* * *

assay.comment: In vivo pharmacokinetic in the rat after i.v. and p.o. administration of compound (IV)
condition.info: rat, plasma, oral, 50 mg/kg, compound (IV) oral gavage 50 mg/kg, rat, mean; read-out: Clast Mean
endpoint.name: concentration at 200 min (ng/mL)
The response must be a number in ng/mL with no trailing unit.

// query For the molecule CCCC(=O)Oc1ccc(N)cc1C(=O)O.Cl [Compound (IV), 5-amino-2-(butyryloxy)benzoic acid] , what concentration at 200 min is on record?
// result 2.8

* * *

assay.comment: In vivo pharmacokinetic in the rat after i.v. and p.o. administration of compound (IV)
condition.info: rat, plasma, po, 50 mg/kg, after p.o. administration, rat, 4 hours
endpoint.name: concentration at 4 h (ng/mL)
The response must be a number in ng/mL with no trailing unit.

// query For the molecule CCCC(=O)Oc1ccc(N)cc1C(=O)O.Cl , what concentration at 4 h is on record?
// result 1

* * *

assay.comment: In vivo pharmacokinetic in the rat after i.v. and p.o. administration of compound (IV)
condition.info: rat, plasma, po, 50 mg/kg, compound (IV) oral gavage 50 mg/kg, rat, individual rats; read-out: AUClast (converted)
endpoint.name: AUC(0-t) (ng·h/mL)
The response must be a number in ng·h/mL with no trailing unit.

// query For the compound CCCC(=O)Oc1ccc(N)cc1C(=O)O.Cl , what AUC(0-t) is on record?
// result 67.4
